Assay: soluble on expression in E. coli; label from the status in PepcDB or PDB records
experimental.readout: soluble on expression in E. coli

residues	endpoint.result
MSLAKRIVPCLDVHAGRVVKGVNFVNLRDAGDPVEAARAYDEAGADELVFLDISATHEERAILLDVVARVAERVFIPLTVGGGVRSLEDARKLLLSGADKVSVNSAAVRRPELIRELADHFGAQAVVLAIDARWRGDFPEVHVAGGRVPTGLHAVEWAVKGVELGAGEILLTSMDRDGTKEGYDLRLTRMVAEAVGVPVIASGGAGRMEHFLEAFQAGAEAALAASVFHFGEIPIPKLKRYLAEKGVHVRLD	soluble
MSLTVIITGASSGIGAGLAKSFAADGHLVIACGRDASRLAALQQLSPNISVRLFDMTDRDACRQALTGCFADLIILCAGTCEYLDHGQVDAALVERVMATNFLGPVNCLAALQTQLEAGDRVVLVSSMAHWLPFPRAEAYGASKAALTWFANSLRLDWEPKGVAVTVVSPGFVDTPLTRKNDFAMPGRVSVDRAVAAIRHGLAKGKNHIAFPTGFSLALRLLASLPSGIQRLLLRRMVRSEGHHHHHH	soluble

Data origin: the DeepSol protein solubility set
